test system: LOX IMVI melanoma; assay: NCI-60 one-dose screen, 48 h; details: 10 µM unless noted
About 83,000 compounds went through this panel and 20% of them were active in at least one assay; those are over-represented in the sample as a whole. Active and inactive are the calls of the source. Rule for the calls: active = growth percent below 10; inactive = the rest.
Outcome (select one): active, inactive

* O=C1c2cccnc2C(=O)c2c1c(C(=O)NCCn1ccnc1)c1ccccn21 | active
* COC(=O)c1c2c(c(C)[n+]([O-])c1C)C(=O)C(NCc1ccc(Cl)cc1)=CC2=O | inactive
* CC(C)=CCC[C@](C)(O)[C@H]1CC[C@]2(C)[C@@H]1CC[C@@H]1[C@@]3(C)Cc4nccnc4C(C)(C)[C@@H]3CC[C@]12C | inactive

Query string: Dear colleague, could you share the recorded outcome for CCCCNc1ccc(C#N)c(OCCN(CC)CC)c1 when you have a moment?
Result string: inactive

Query string: // outcome(item) with item = CCN1C(=O)N(CC)C2C1NN=c1s/c(=C\c3cccc([N+](=O)[O-])c3)c(=O)n12 (stereo not given)
Result string: inactive

---

tested on: M14 melanoma; test: NCI-60 one-dose screen, 48 h (100 = growth as untreated, 0 = no growth, -100 = all killed); details: 10 µM unless noted
The panel holds about 83,000 compounds, 20% with a hit somewhere; the sample as a whole holds those more often.
Label scheme for growth: lower than 70% is no, 70% and above is yes.

Query string: Reported growth reaches at least 70% for Cc1ccc(-c2csc(NC(=O)CN3CCN(c4cc5c(cc4F)c(=O)c(C(=O)O)cn5C4CC4)CC3)n2)cc1 ?
Result string: no

Query string: Evaluate CN1CCN(C(=O)OCc2ccc3c(Cl)cc(Cl)c(O)c3n2)CC1 : growth at minimum 70%?
Result string: no

Query string: growth >= 70% for COc1ccc2cc(C(=O)c3coc4ccc(O)cc34)ccc2c1 ?
Result string: yes

Query string: I'd appreciate it if you could say whether Nc1ncnc2c1N=C(c1ccc3c(c1)OCO3)CC(c1ccc([N+](=O)[O-])cc1)N2 (centres undefined) has growth at least equal to 70%.
Result string: yes

Query string: Threshold query (growth >= 70%) on O=C(CCCCCCN1CC(=O)N2[C@H](c3cc(Br)cs3)c3[nH]c4ccccc4c3C[C@H]2C1=O)NO
Result string: no

Query string: Does growth meet or surpass 70% for CN(C)CCNC(=O)c1cccc(-c2cnc3ccc(-c4ccc5c(c4)OCO5)nn23)c1 ?
Result string: no

Query string: Dear colleague, could you confirm whether COCCNC(=O)c1ccc(-c2nc3ccc4[nH]ncc4c3c3c2CCCC3)cc1 has growth at or above 70%?
Result string: no

Query string: Answer whether growth of CS(=O)(=O)Nc1cc(-c2ccc3ncnc(Nc4ccc5c(cnn5Cc5ccccn5)c4)c3c2)cnc1Cl is greater than or equal to 70%.
Result string: yes

---

tested on: M14 melanoma; test: NCI-60 one-dose screen, 48 h; details: 10 µM unless noted
About 83,000 compounds went through this panel and 20% of them were active in at least one assay; those are over-represented in the sample as a whole. Activity calls are given as the source filed them. How the source made its calls: active means growth percent below 10; inactive means the rest.
// allowed return values: active, inactive

* COc1cc(/C=C\c2cc(/C=C\c3ccc(O)c(OC)c3)n(C(=O)COc3ccc(Cl)cc3Cl)n2)ccc1O | active
* CCc1n(Cc2ccc3ccccc3c2)cc[n+]1Cc1ccc2ccccc2c1 | active
* C1=CN2CC(c3ccccc3)=NNC2c2ccccc21 (stereo not given) | inactive
* O=C1C(Cl)=C(Oc2ccccc2)C(=O)c2ccccc21 | inactive
* Oc1ccc(CCn2c(O)c(/C=C3\CN=c4ccccc4=N3)sc2=S)cc1 | inactive
* O=C1Nc2ccccc2/C1=C\c1nc(-c2ccccc2F)n2ccccc12 | inactive
* C=C1C(=O)O[C@H]2[C@H]1CC/C(COC(=O)CCSCCC(=O)OC/C1=C/CC[C@@]3(C)O[C@H]3[C@H]3OC(=O)C(=C)[C@@H]3CC1)=C\CC[C@@]1(C)O[C@@H]21 | active
* Fc1cccc(CNc2c3ccccc3nc3ccccc23)c1F | inactive

Query string: Kindly provide the recorded test outcome for the following compound: COc1ccc2[nH]cc(C(c3cc(F)cc(F)c3)c3c[nH]c4ccc(OC)cc34)c2c1
Result string: inactive

Query string: Record request — test call for O=C(O)c1[nH]c(=O)[nH]c(=O)c1[N+](=O)[O-]
Result string: inactive

Query string: Test call for this compound, please: Oc1ccc(CN2CCC(N3CCCCC3)CC2)c2cccnc12
Result string: inactive

Query string: How was C=C1C(=O)O[C@H]2[C@H]1CC/C(COC(=O)CSCCSCC(=O)OC/C1=C/CC[C@@]3(C)O[C@H]3[C@H]3OC(=O)C(=C)[C@@H]3CC1)=C\CC[C@@]1(C)O[C@@H]21 classified in this test?
Result string: active

Query string: What was the test verdict on CCOC(=O)C1=C(NC)OCC1=O ?
Result string: inactive

Query string: For O=C1/C(=C/c2ccc(Cl)cc2)COc2ccc(O)cc21 , what call appears in the results of this test?
Result string: inactive

Query string: Status in this test for CCCC(=O)NC(c1ccc2c(c1)OCO2)c1ccc2cccnc2c1O (stereo not given) ?
Result string: active

Query string: Just curious, what result did O=C1c2cccnc2C(=O)c2c1c(C(=O)NCCCN1CCCCC1)c1ccccn21 get here?
Result string: active

Query string: State the result this test recorded for N=C(N)c1ccc(-c2ccc(-c3cc(Cl)cc(Cl)c3)o2)o1 .
Result string: active

Query string: # fetch the recorded call for COc1ccc(OC)c(-c2c(C#N)c(-c3cccs3)nc3c2c(-c2ccccc2)nn3-c2ccccc2)c1 here
Result string: inactive

Query string: What did the test return for O=C(Nc1nn(-c2ccc(Cl)cc2Cl)nc1-c1ccccc1)c1ccccc1 ?
Result string: inactive

Query string: How did this test come out for COc1ccc(-c2csc(NC(=O)CSc3nc(-c4ccccc4)cc(=O)[nH]3)n2)cc1 ?
Result string: inactive

Values compiled from PubChem BioAssay (NCI).
